# test details: Hepatic extraction ratio in human liver microsomes at 1 uM in presence of NADPH by LC-MS method
# Format: ADME, microsome
# run parameters: read-out: ERH
property: hepatic extraction ratio at 1 µM
One number for each entry.

Example entries begin here.
| molecule | hepatic extraction ratio at 1 µM |
| --- | --- |
| CN1CCC(Nc2nc(Nc3ccc(Cl)c(F)c3)nc3ccccc23)CC1.Cl.Cl | 0.28 |
| CN1CCN(CCNc2nc(Nc3ccc(Cl)c(F)c3)nc3ccccc23)CC1.Cl.Cl | 0.47 |
| COc1cc2nc(Nc3ccc(F)cc3)nc(NCC3CCCO3)c2cc1OC (configuration not stated) | 0.52 |

Here is the next item to consider.
Challenge: Tell us which hepatic extraction ratio at 1 µM value is on record for COc1ccc(Nc2nc(NCc3ccccc3)c3ccccc3n2)cc1
Response given: 0.51
